assay: Competitive inhibition of HSV-1 pyrimidine deoxythymidine kinase using 2-[14C]deoxythymidine as substrate; design: species or system Human alphaherpesvirus 1
pKi: −log10 of the molar value.
rule met means recorded pKi is 5 or above; rule not met means it is below 5.

Known results for compounds:
Please check the record O=C(O)[C@H]1O[C@@H](n2cc(Br)c(O)nc2=O)C[C@@H]1O and state if its pKi is at or above 5.
rule met

Please check the record O=c1[nH]c(=O)n([C@H]2C[C@H](O)[C@@H](CO)O2)cc1I [IDOXURIDINE] and state if its pKi is at or above 5.
rule met

Please check the record COC(=O)[C@H]1O[C@@H](n2cc(C)c(=O)[nH]c2=O)C[C@@H]1O and state if its pKi is at or above 5.
rule met

Please check the record O=C(O)[C@H]1O[C@@H](n2cc(I)c(O)nc2=O)C[C@@H]1O and state if its pKi is at or above 5.
rule met

Please check the record COC(=O)[C@H]1O[C@@H](n2cc(F)c(O)nc2=O)C[C@@H]1O and state if its pKi is at or above 5.
rule not met

Please check the record COC(=O)[C@H]1O[C@@H](n2cc(Br)c(=O)[nH]c2=O)C[C@@H]1O and state if its pKi is at or above 5.
rule met

Please check the record N#C[C@H]1O[C@@H](n2cc(Br)c(=O)[nH]c2=O)C[C@@H]1O and state if its pKi is at or above 5.
rule met

As a next step, examine the compound that follows.
Please check the record COC(=O)[C@H]1O[C@@H](n2ccc(=O)[nH]c2=O)C[C@@H]1O and state if its pKi is at or above 5.
rule not met

Data origin: ChEMBL document CHEMBL3244133
